B1: FBXO3 (parent)
chain: DEEERRRRVFDVPIRRRRCSRLF

Variants of: B1
Assay: protein stability index of a GFP-peptide fusion (GPS, HEK-293T) (PSI 1-6); higher = more stable;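 also: lentivirally expressed fusions sorted by FACS into six bins by GFP to DsRed ratio, PSI derived from sequencing read proportions per bin multiplied by bin number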
Details: c terminus: native
outcome_measure: protein stability index
A bare number is all that is needed in reply.

q: Item under review: DEEERRRRVFDVPIRRSRCSRLF [R17S] . Reported protein stability index?
a: 1.77

q: Item under review: DEEERMRRVFDVPIRRRRCSRLF [R6M] . Reported protein stability index?
a: 2.58

q: Item under review: DVEERRRRVFDVPIRRRRCSRLF [E2V] . Reported protein stability index?
a: 1.95

q: Item under review: DEEERRWRVFDVPIRRRRCSRLF [R7W] . Reported protein stability index?
a: 1.97
